The measurements presented in this section are drawn from PubChem BioAssay (NCI).

# System: DU-145 prostate
# TEST METHOD NOTES: NCI tumour cell line growth inhibition, 48 h
EXPERIMENTAL READOUT: GI50

Worked examples, 5 compounds total:
COMPOUND STRUCTURE STRING: COc1ccc(-c2cn(C)c3c2-n2cccc2C3=O)cc1O
RECORDED VALUE: 12.5 µM
--
COMPOUND STRUCTURE STRING: O=C1/C(=C/c2ccc(F)cc2)COc2ccc(O)c(O)c21
RECORDED VALUE: 3.02 µM
--
COMPOUND STRUCTURE STRING: COc1ccc(-c2nc(NC(=O)CS(=O)(=O)c3ccc(F)cc3)sc2C)cc1
RECORDED VALUE: 34.5 µM
--
COMPOUND STRUCTURE STRING: Nc1c(C(=O)c2cccc(-c3cccnc3)c2)cnn1-c1ccc(F)cc1
RECORDED VALUE: > 25 µM
--
COMPOUND STRUCTURE STRING: COC(=O)CNC(=O)C(=O)c1c(O)c(O)c(C(C)C)c2cc(C)c(-c3c(C)cc4c(C(C)C)c(O)c(O)c(C(=O)C(=O)NCC(=O)OC)c4c3O)c(O)c12
RECORDED VALUE: 1.99 µM

// input: 2 compounds below; output: GI50 for each
1. COc1ccc(CCN2CCCn3c2nc2ccccc2c3=O)cc1
2. O=C(CSSCC(=O)c1ccc(Cl)cc1)c1ccc(Cl)cc1

[A]
1. 0.211 µM
2. 4.77 µM

// input: 4 compounds below; output: GI50 for each
1. Nc1[nH]nc(Nc2ccccc2)c1-c1nc2ccccc2s1
2. CN(C)Cc1ccc(NC(=O)c2cncc(C#Cc3cnc(N)c4ncccc34)c2)cc1C(F)(F)F
3. COc1ccc(C2=C(c3ccc(OC)cc3)C(=O)OC2)cc1
4. COc1ccc(/C=C\c2cc(OC)c(OC)c(OC)c2)cc1NC(=O)/C=C/c1ccc(OC)c(OC)c1

[A]
["3.02 µM", "1.73 µM", "2.38 µM", "4.93 µM"]

[Q] Could you tell me which GI50 is on file for COc1cc(C[C@H]2COC(=O)[C@]2(O)Cc2ccc(OCc3ccccc3)c(OC)c2)ccc1OCc1ccccc1 ?
[A] 85.9 µM

====

# Tested on: SK-OV-3 ovarian
# TEST METHOD NOTES: NCI tumour cell line growth inhibition, 48 h
For each record, write down the corresponding TGI.

Worked examples, 3 compounds total:
COMPOUND: CC(C)(C)OC(=O)NCCCCCCCCCn1c2c(c3ccccc3c1=O)C(=O)c1ccccc1-2
TGI: 78.3 µM

COMPOUND: COC(=O)[C@@]12CSC[C@]1(C(=O)OC)N[C@@H](c1ccccc1O)C2
TGI: > 100 µM

COMPOUND: Nc1cc(OCC2CCCCC2)nc(N)n1
TGI: > 100 µM

// input: 7 compounds below; output: TGI for each
1. O=[N+]([O-])c1ccc(C[P+]2(c3ccccc3)CCCCC2)cc1 (tested in a mixture with another compound)
2. COc1ccc2c(c1)/C(=C\c1c(Cl)nc3n1CCS3)C(=O)N2
3. COc1ccc(SCc2cc(OC)ccc2OC)cc1
4. COc1ccc(-c2cn(C)c3c2-n2cccc2C3=O)cc1O
5. CCOC(CBr)OC1C(=O)OCC1(C)C (configuration not stated)
6. CCOC(=O)c1ccc(N=Cc2ccc(N(CCC#N)S(=O)(=O)c3ccccc3)cc2C)cc1
7. O=C1CCCC2=C1CC1=C(CCCC1=O)N2c1ccc(Cl)cc1

[A]
> 100 µM
66.9 µM
> 71.8 µM
94.7 µM
> 100 µM
> 100 µM
> 100 µM

====

# Tested on: MCF7 breast
# TEST METHOD NOTES: NCI tumour cell line growth inhibition, 48 h; in the data active = GI50 below about 0.43 µM; inactive = the rest
In this exercise, the only acceptable responses are 1.0 for active, 0.0 for inactive

COMPOUND STRUCTURE STRING: Nc1c(C(=O)c2cccc(-c3cccnc3)c2)cnn1-c1ccc(F)cc1
ASSIGNED CATEGORY: 0.0

[Q] Could you kindly confirm the outcome this assay logged for CCCC(=O)Oc1ccc(/C(=C(\C)c2ccc(Cl)cc2)c2ccc(OCCN(CC)CC)cc2)cc1 ?
[A] 1.0

====

# Test system: EKVX NSCLC
# TEST METHOD NOTES: NCI tumour cell line growth inhibition, 48 h
For each record, write down the corresponding TGI.

Worked examples, 6 molecules total:
MOLECULE: COc1ccc2c(c1)/C(=C\c1c(Cl)nc3n1CCS3)C(=O)N2
TGI: 77 µM

MOLECULE: COc1ccc2c(=O)c(-c3cc(OC)c(OC)cc3OC)coc2c1
TGI: > 100 µM

MOLECULE: CCOP(=O)(OCC)C(c1ccc(F)cc1)N(C(=O)NC(F)(F)F)c1ccc(F)cc1 (centres undefined)
TGI: > 100 µM

MOLECULE: Nc1cc(CO)cc(Nc2c3ccccc3nc3ccccc23)c1
TGI: 31.8 µM

MOLECULE: CC(C)CC1c2[nH]c3ccccc3c2C[C@H]2C(=O)NC(Cc3c[nH]c4ccccc34)C(=O)N12 (some centres undefined)
TGI: 45.4 µM

MOLECULE: COc1ccc(C2CC(c3sc(Nc4ccc(C)cc4)nc3C)=NN2)cc1 (centres undefined)
TGI: 47.8 µM

// input: 3 molecules below; output: TGI for each
1. COc1ccc2c(c1OC)C(=O)C2
2. CN1C/C(=C\c2cccs2)C2=NN(c3ccccc3)C(c3cccs3)C2C1 (centres undefined)
3. COC(=O)NC1(NC(=O)OC)NC(=O)c2ccccc2N1

[A]
1. > 100 µM
2. > 100 µM
3. > 100 µM

// input: 7 molecules below; output: TGI for each
1. O=C(CC1(O)C(=O)Nc2ccccc21)c1ccc(Cl)c(Cl)c1 (centres undefined)
2. O=c1cc(NNc2ccccc2)[nH]c(=O)[nH]1
3. Nc1nnc(N)n1N
4. COc1ccc2nc3cc(Cl)ccc3c(Sc3ccc(N)cc3)c2c1
5. Cc1cc2ncn(CC(=O)O)c2cc1C
6. Cn1cc(-c2ccc3c4ccccc4n(C)c3c2)c2ccccc21
7. O=CNC(Cc1cnc[nH]1)C(=O)O (centres undefined)

[A]
["> 100 µM", "> 100 µM", "> 100 µM", "25.4 µM", "> 100 µM", "> 100 µM", "> 100 µM"]

// input: 2 molecules below; output: TGI for each
1. COc1ccc(SCc2cc(OC)ccc2OC)cc1
2. O=C(NCCCN1CCN(CCCNC(=O)c2cccc3ccccc23)CC1)c1cccc2ccccc12

[A]
1. > 100 µM
2. > 100 µM

// input: 6 molecules below; output: TGI for each
1. O=C1c2ccccc2C(=O)c2c1ccc1conc21
2. CC(C)(C)C1=CC(=N/N=c2\scc(-c3ccccc3)n2Cc2ccccc2)C=C(C(C)(C)C)C1=O
3. C=CCCC(O)c1cc(C)c(O)c(C)c1 (centres undefined)
4. N#CN1CC[C@@H]2CC3(CCC2C1)OCCO3 (some centres undefined)
5. O=C(n1c2ccccc2c2n[nH]c(=S)nc21)C(F)(F)F
6. COc1cc(C[C@H]2COC(=O)[C@]2(O)Cc2ccc(OCc3ccccc3)c(OC)c2)ccc1OCc1ccccc1

[A]
3.87 µM
> 100 µM
> 100 µM
> 100 µM
> 100 µM
> 100 µM

====

# Test system: MALME-3M melanoma
# TEST METHOD NOTES: NCI tumour cell line growth inhibition, 48 h
Kind request: treat 20 µM as inclusive, so TGI at 20 µM or higher is Fulfilled, anything lower is Not fulfilled.

[Q] # check: TGI of CN(C)CCCNc1ccnc2c([N+](=O)[O-])cccc12 is greater than or equal to 20 µM
[A] Not fulfilled

[Q] # check: TGI of CC(O)C(CO)NC(=O)C1CSSCC(NC(=O)C(N)Cc2ccccc2)C(=O)NC(Cc2ccccc2)C(=O)NC(Cc2c[nH]c3ccccc23)C(=O)NC(CCCCN)C(=O)NC(C(C)O)C(=O)N1 (stereo unspecified) is greater than or equal to 20 µM
[A] Fulfilled

[Q] # check: TGI of Cn1c(=O)nc2n(-c3ccc(Br)cc3)c3ccccc3nc-2c1=O is greater than or equal to 20 µM
[A] Not fulfilled

[Q] # check: TGI of CC(C)(C)c1cc(C2c3cc4c(cc3OC(O)(CO)C2C(=O)O)OCO4)cc(C(C)(C)C)c1O (stereo unspecified) (tested in a mixture with another compound) is greater than or equal to 20 µM
[A] Fulfilled

[Q] # check: TGI of CC1=C[P+](c2ccccc2)(c2ccccc2)c2ccccc2O1 is greater than or equal to 20 µM
[A] Fulfilled

[Q] # check: TGI of O=C1C=C(NCCc2ccc(O)c([N+](=O)[O-])c2)C(=O)c2[nH]cnc21 is greater than or equal to 20 µM
[A] Not fulfilled

[Q] # check: TGI of O=S(=O)(F)Cc1ccccc1 is greater than or equal to 20 µM
[A] Fulfilled

[Q] # check: TGI of O=C(Cn1c2ccc(Br)cc2c2nc3ccccc3nc21)NCc1ccccc1 is greater than or equal to 20 µM
[A] Fulfilled

[Q] # check: TGI of CCCC(=O)Oc1ccc(/C(=C(\C)c2ccc(Cl)cc2)c2ccc(OCCN(CC)CC)cc2)cc1 is greater than or equal to 20 µM
[A] Not fulfilled

[Q] # check: TGI of CC(=O)c1cc2c(Br)cccc2oc1=O is greater than or equal to 20 µM
[A] Fulfilled

[Q] # check: TGI of CNc1c2ccccc2nc2occ(Cl)c12 is greater than or equal to 20 µM
[A] Fulfilled

[Q] # check: TGI of CC(C#N)(NO)C(C)(C#N)NO (stereo unspecified) is greater than or equal to 20 µM
[A] Fulfilled
